- Target Under Test: T1, huNav1.7α + β1-β2-β3 (human, UniProt Q15858 1-1988; A5A6L6 19-218; O60939 30-215; Q2KI11 23-215)
- T1 construct: also called huNav1.7-beta1-beta2-beta3; huNav1.7-β1-β2-β3
- Method Description: competition FACS vs EC25 of F103275B05(N93R), CHO FlpIn
Metric: IC50 (nM)

{"Binder": "F010302380 (bispecific antibody, also called F0103275B05(E1D, N93R)-50GS-F0103505D08(L108Q)-FLAG3-HIS6) DVQLVESGGGLVQPGGSLRLSCAASGSIFNINSMAWYRRAPGKQRELVASSTNGGSTNYADSVKGRFTISRDNAKRVYLQMNSLTPEDTAVYYCRALLQPSIYDISRTYWGQGTLVTVSSGGGGSGGGGSGGGGSGGGGSGGGGSGGGGSGGGGSGGGGSGGGGSGGGGSEVQLVESGGGLVQAGGSLRLSCVTSGRTSDLSTMNWFRQAPGKEREFVARITRRGSTYYAESVKERFIISRDNAKNTVYLQMNSLKPEDTANYYCTAASEMGYHYRGQGTQVTVSSGAADYKDHDGDYKDHDIDYKDDDDKGAAHHHHHH", "Quantity Unit": "nM", "Result": 8.1}
